Assay: qHTS RealTime-Glo MT Cell Viability Assay in HepG2 cells - 40 hour (AID 1224870); further: on the % scale 0 is the no-effect control and ±100 the full control effect; nearly all actives have a fitted effect of over 50% in size
Conditions: RealTime-Glo luminescence; series mostly up to 76.8 µM
Excerpt: National Center for Advancing Translational Sciences [NCATS] NIH Chemical Genomics Center [NCGC] U.S. Environmental Protection Agency [EPA] National Institutes of Environmental Health Sciences [NIEHS] National Toxicology Program [NTP] U.S. Food and Drug Administration [FDA] Measure of cell viability is critical in the cell-base assay. Analysis of cell viability is necessary for the characterization of cell responses to cytotoxic drugs and environmental stress. […]
Inconclusive results are not listed. Active and inactive are the calls of the source. The call rests on the fitted dose curve; in most records, active means well fitted cell-killing curve with a large enough effect in the repeat runs; inconclusive means weak or mixed curves, or effect the other way; inactive means flat fitted curve, though single readings scatter.
property.measured: activity change, negative = cytotoxic

C[C@]12C=CC(=O)C=C1[C@@H](F)C[C@@H]1[C@@H]2[C@@H](O)C[C@@]2(C)[C@H]1CC[C@]2(O)C(=O)CO    inactive
CCCCCCCCCCCCCCCCN(C)C    -1.15% [at 6.97 µM] (inactive)
COc1cnc(NS(=O)(=O)c2ccc(N)cc2)nc1    inactive
COC(=O)c1c(C)cc(O)c(C)c1O    inactive

Quick note, activity change, negative = cytotoxic for `CN(C)c1ccncc1` landed at inactive

Lab note: measured activity change, negative = cytotoxic of `CC(C)(O)c1ccc(C(C)(C)O)cc1` was inactive
